# ASSAY_SYSTEM: UniProtKB Q9NR96
# Sequence (Q9NR96 26-1032): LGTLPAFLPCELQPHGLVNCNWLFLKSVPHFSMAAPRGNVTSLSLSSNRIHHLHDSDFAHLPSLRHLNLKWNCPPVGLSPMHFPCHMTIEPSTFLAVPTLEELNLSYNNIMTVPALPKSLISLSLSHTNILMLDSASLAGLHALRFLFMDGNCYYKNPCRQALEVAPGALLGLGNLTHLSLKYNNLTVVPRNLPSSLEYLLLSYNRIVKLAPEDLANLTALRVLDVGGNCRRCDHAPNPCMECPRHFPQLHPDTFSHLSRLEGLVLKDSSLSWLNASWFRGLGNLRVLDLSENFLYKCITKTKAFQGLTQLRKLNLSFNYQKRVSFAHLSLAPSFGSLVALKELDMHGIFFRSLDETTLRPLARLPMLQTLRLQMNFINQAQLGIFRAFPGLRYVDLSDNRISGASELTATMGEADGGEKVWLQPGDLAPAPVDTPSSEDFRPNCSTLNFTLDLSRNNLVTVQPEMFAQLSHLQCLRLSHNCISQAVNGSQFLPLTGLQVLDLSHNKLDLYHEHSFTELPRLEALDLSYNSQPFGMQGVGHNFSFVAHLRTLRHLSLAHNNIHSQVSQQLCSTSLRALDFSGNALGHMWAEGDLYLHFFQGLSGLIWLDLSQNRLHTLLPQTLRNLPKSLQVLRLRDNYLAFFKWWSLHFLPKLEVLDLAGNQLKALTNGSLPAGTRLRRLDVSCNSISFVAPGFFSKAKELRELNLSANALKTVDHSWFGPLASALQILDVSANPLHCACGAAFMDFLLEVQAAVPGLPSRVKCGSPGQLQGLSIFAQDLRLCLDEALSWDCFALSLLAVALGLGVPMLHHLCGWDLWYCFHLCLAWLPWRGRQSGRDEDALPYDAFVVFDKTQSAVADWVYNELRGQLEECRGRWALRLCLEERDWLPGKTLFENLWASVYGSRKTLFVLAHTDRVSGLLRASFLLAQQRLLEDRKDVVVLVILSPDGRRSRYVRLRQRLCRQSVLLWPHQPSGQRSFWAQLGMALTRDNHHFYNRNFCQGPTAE
# ASSAY_SUMMARY: TLR9 inhibition reporter assay (HEK-Blue cells, SEAP reporter, ODN2006 stimulation)
# EXPERIMENTAL_SETUP: HEK-Blue cells overexpressing human TLR9, SEAP reporter, ODN2006 5 nM
READOUT_TYPE: IC50

Cc1cn2cc(-c3[nH]c4ccc(C5CCNCC5)cc4c3C(C)C)c(C)cc2n1 100 to 1000 nM
CC(C)c1c(-c2coc3cccnc23)[nH]c2ccc(C3CCNCC3)cc12 1000 to 50000 nM
CC(C)c1c(-c2cn3ccnc3cc2Cl)[nH]c2ccc(C3CCN(CC(=O)N(C)C)CC3)cc12 1000 to 50000 nM

Please examine the following record next.
Q: Entry CCc1c(-c2ccnc3[nH]ncc23)[nH]c2ccc(C3CCN(Cc4[nH]cnc4C)CC3)cc12 : reported IC50 = ?
Ans: 100 to 1000 nM
